# test.description: Toxicity liver stage against HepG2, at 10uM
# Assay type: cell-based
# Parameters: test concentration 10 uM, cell line HepG2-A16-CD81EGFP
# condition.info: human, HepG2-A16-CD81EGFP cells; read-out: INHIBITION
Item-by-item account of cytotoxicity at 10 µM
Expressed in %, but write only the number.

Sample records with cytotoxicity at 10 µM:
Cc1n[nH]cc1CNC1CCN(c2ccccc2)CC1	-52.2
CC(C)CCn1c(=O)n(CCn2cccc2)c2cc(C(=O)O)cnc21	-2.95

Q. cytotoxicity at 10 µM for Cc1ccc(CNC(=O)CCNS(C)(=O)=O)cc1 ?
A. -5.07

Q. # iterate: O=C(NC1CC1)[C@@H]1C[C@@H]2CCN(Cc3ccccc3)C[C@H]2O1
A. -68

Q. # iterate: CC(C)(C)c1nnc(CN2CCN(S(C)(=O)=O)CC2)o1
A. -4.32

Q. # iterate: CCN1CC2(CC1=O)CN(C(=O)C(C)C)CCN(S(=O)(=O)CC)C2 (centres undefined)
A. 16

Q. # iterate: Cc1nc(Oc2ccccc2F)sc1C(=O)O
A. -11.2

Q. # iterate: O=C(C1CCCC1)N1CCC(Nc2ccncn2)CC1
A. -57.7

Q. # iterate: Cn1c(C2CC2)nc2c1CCN(CC(=O)Nc1nccs1)C2
A. -9.83

Q. # iterate: COCC(=O)NC(c1ccc(Cl)cc1)C(F)(F)F (centres undefined)
A. 6.76

---

# test.description: Toxicity liver stage against HepG2, at 10uM
# Assay type: cell-based
# Design: test concentration 10 uM, cell line HepG2-A16-CD81EGFP
# condition.info: human, HepG2-A16-CD81EGFP cells; read-out: INHIBITION
Item-by-item account of cytotoxicity at 10 µM

Cc1noc(C)c1CN(C)C(=O)CCn1c(=O)n(C)c2ccccc21	-6.67%
O=C(c1ccoc1)N1CCCC2(CCC(=O)N2Cc2ccncc2)C1 (stereo unspecified)	-3.55%
CS(=O)(=O)N1CCC(C(=O)NC(Cc2ccsc2)c2nccs2)CC1 (stereo unspecified)	4.04%

Q. cytotoxicity at 10 µM for CN1CCn2c(-c3ccccc3)cnc2C12CCN(CC1CC1)CC2 ?
A. 5.35%

Q. # iterate: Cc1cc(C(F)(F)F)nn1C(C)C(=O)NN1CCOCC1 (stereo unspecified)
A. -1.67%

Q. # iterate: CN1C[C@@H]2CN(C(=O)NCc3cccc(F)c3)CCC[C@]2(C(=O)O)C1
A. 1.14%

---

Item-by-item account of cytotoxicity at 10 µM
# test.description: Toxicity liver stage against HepG2, at 10uM
# Assay type: cell-based
# Design: test concentration 10 uM, cell line HepG2-A16-CD81EGFP
# condition.info: human, HepG2-A16-CD81EGFP cells; read-out: INHIBITION
Expressed in %, but write only the number.

Sample records with cytotoxicity at 10 µM:
O=C1CC(N(C(=O)c2ccc(Cl)c(Cl)c2)C2CC2)C(=O)N1 (centres undefined)	0.0791
c1cnc(N2CCO[C@H]3CN(Cc4c[nH]cn4)C[C@H]32)cn1	9.49
CCN(CC)C(=O)C1(NCc2nc(C)c(C)o2)CCCCC1	2.5

Q. cytotoxicity at 10 µM for OC1(CNC2CCN(Cc3ccncc3)CC2)CCc2ccccc21 (centres undefined) ?
A. -1.41

Q. # iterate: CC(C)c1cc(C(F)(F)F)n2nc(CCC(=O)O)nc2n1
A. 5.97

Q. # iterate: Cc1ccnc(NC(=O)c2cc(C)oc2C)c1
A. -4.57

Q. # iterate: CN(C)S(=O)(=O)N1CCC(c2cccc(Cc3ccccc3Cl)n2)CC1
A. 55.9

---

# test.description: Toxicity liver stage against HepG2, at 10uM
# Type: cell-based
# Parameters: test concentration 10 uM, cell line HepG2-A16-CD81EGFP
# condition.info: human, HepG2-A16-CD81EGFP cells; read-out: INHIBITION
Item-by-item account of cytotoxicity at 10 µM

c1ccc(O[C@H]2COCCN(Cc3cccc4c3OCO4)C2)cc1	3.53%
Cc1ccccc1[C@@H]1CN(Cc2ccc(C(F)(F)F)nc2)C[C@H]1C(=O)O	5.33%

Shifting focus to the molecule that follows.
Q. cytotoxicity at 10 µM for COCCCN(Cc1ccncc1)c1ncc(C#N)cc1Cl ?
A. 4.98%

---

# test.description: Toxicity liver stage against HepG2, at 10uM
# Type: cell-based
# Design: test concentration 10 uM, cell line HepG2-A16-CD81EGFP
# condition.info: human, HepG2-A16-CD81EGFP cells; read-out: INHIBITION
Item-by-item account of cytotoxicity at 10 µM
Expressed in %, but write only the number.

Sample records with cytotoxicity at 10 µM:
CN1CCN(S(=O)(=O)c2cccc(F)c2)c2cnccc21	-2.95
O=S(=O)(NCCCn1cncn1)c1ccc2c(c1)OCCO2	5.38
CCS(=O)(=O)N1CCC(c2nnc(CN3CCOCC3)n2C)CC1	17
O=C(Cn1ccnc1)N1CCCC(OCc2cccnc2)C1 (stereo not given)	2.03

Q. cytotoxicity at 10 µM for Cc1cc(S(=O)(=O)NCC[S+](C)[O-])c(F)cc1F (stereo not given) ?
A. -4.23

Q. # iterate: Cc1nncn1CCNC(=O)C(C)(C)c1cccc(F)c1
A. 5.73

Q. # iterate: CC(NC(N)=O)C(=O)N1CCCN(Cc2nccn2C(C)C)CC1 (stereo not given)
A. 1.95

Q. # iterate: Cc1nc(CN(C)C2CCN(CCc3cnn(C)c3)C2)no1 (stereo not given)
A. 3.63

Q. # iterate: Cc1cc(C)n(CC2CCCN2C(=O)c2cc[nH]n2)n1 (stereo not given)
A. -3.8

Q. # iterate: OC1(CNc2ccc(-c3nc(C4CC4)no3)cn2)CCCCC1
A. 7.72

Q. # iterate: COc1ccsc1C(=O)N1CCCC(n2nc(C)nc2C)C1 (stereo not given)
A. -3.69

Q. # iterate: COc1cccc2c1OCC(Cc1ccc(N)nc1C)C2 (stereo not given)
A. 3.29

---

Item-by-item account of cytotoxicity at 10 µM
# test.description: Toxicity liver stage against HepG2, at 10uM
# Type: cell-based
# Set-up: test concentration 10 uM, cell line HepG2-A16-CD81EGFP
# condition.info: human, HepG2-A16-CD81EGFP cells; read-out: INHIBITION
Expressed in %, but write only the number.

Sample records with cytotoxicity at 10 µM:
O=C(O)CNC(=O)Cc1csc(-c2ccccc2F)n1	-10.5
Cc1c(Br)cccc1S(=O)(=O)NCc1ccnn1C	43
CCc1nc(CC(=O)NC(C#N)CC)cs1 (stereo not drawn)	10.3
CC(=O)N[C@H]1CCO[C@@H](c2cccc(NC(=O)c3ccc(=O)[nH]n3)c2)C1	4.46

Q. cytotoxicity at 10 µM for COc1ccc(C(C(=O)O)N2CCN(C3CCCC3)CC2)cc1OC (stereo not drawn) ?
A. -17.1

Q. # iterate: Cc1sc2nc(C(F)(F)F)nc(N3CCC(NS(C)(=O)=O)CC3)c2c1C
A. -17

Q. # iterate: CCc1noc(C(C)N(C)CC(=O)Nc2cccc(C)n2)n1 (stereo not drawn)
A. 0.407

---

Item-by-item account of cytotoxicity at 10 µM
# test.description: Toxicity liver stage against HepG2, at 10uM
# Type: cell-based
# Set-up: test concentration 10 uM, cell line HepG2-A16-CD81EGFP
# condition.info: human, HepG2-A16-CD81EGFP cells; read-out: INHIBITION

Sample records with cytotoxicity at 10 µM:
CCOC(C)c1noc(CN(C)C(=O)C2C(C)(C)C2(C)C)n1 (stereo unspecified)	9.5%
CC(C)(C)c1csc(CCNC(=O)[C@H](c2ccccc2)n2cnnn2)n1	2.07%
Cc1ccccc1CC1(CO)CCCN(c2ncnc3sccc23)C1 (stereo unspecified)	27.5%
Cc1noc(C)c1CN1CCN(C(=O)Cn2cncn2)CC1	-3.52%

Q. cytotoxicity at 10 µM for Cc1cc(C)n2cc(CN3CCCC3Cn3nc(C)nc3C)nc2n1 (stereo unspecified) ?
A. 4.91%

Q. # iterate: O=C1NCCCc2[nH]c(-c3nc(C4CCCCC4)no3)nc21
A. -0.627%

---

# test.description: Toxicity liver stage against HepG2, at 10uM
# Assay type: cell-based
# Set-up: test concentration 10 uM, cell line HepG2-A16-CD81EGFP
# condition.info: human, HepG2-A16-CD81EGFP cells; read-out: INHIBITION
parameter.measured: cytotoxicity at 10 µM (%)
Expressed in %, but write only the number.

CC(=O)N1CC(c2ncn(C(C)C)n2)c2cc(C(=O)NC3CC3)ccc21 (stereo unspecified)	4.11

Q. cytotoxicity at 10 µM for Cc1[nH]nc2ncc(C(=O)N3CCN(C(C)(C)C)CC3)cc12 ?
A. -4.36

Q. # iterate: O=C(c1cnc(Nc2ccccc2)nc1)N1CCC(O)(CO)CC1
A. -0.756

Q. # iterate: Cc1cc(=O)c(C(=O)N(C)Cc2ccc(Cl)c(F)c2)c[nH]1
A. 9.39

Q. # iterate: O=C(Nc1cccnc1)C1CCN(c2cc(-n3ccnc3)ncn2)CC1
A. -3.3

Q. # iterate: O=C(NCc1cccnc1)[C@@H]1C[C@H]2[C@H](CCN2c2ncccn2)O1
A. -66.6

Q. # iterate: Cc1ncc(CN2CCCN(Cc3noc(C4CC4)n3)CC2)s1
A. -8.57

Q. # iterate: O=C(NCCCO)c1cc(-c2cc[nH]n2)n2ccccc12
A. 14.3

Q. # iterate: Cc1ccc(CN2CCC3(CCN(S(=O)(=O)c4ccccc4)C3)C2)o1 (stereo unspecified)
A. -0.00736

Q. # iterate: N[C@H]1CN(C(=O)Cc2ccc(CO)cc2)C[C@@H]1C1CC1
A. -5.68

Q. # iterate: Fc1cccc(C2(CNC3CCOC4(CCOCC4)C3)CCOCC2)c1 (stereo unspecified)
A. 0.616

Reference source: ChEMBL document CHEMBL4513216
